- System: CT26 mouse colon cancer cells;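 further: MTT read-out taken as absorbance at 562 nm after a 3 h dye incubation, medium-only wells as blank, values averaged over three independent experiments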
So basically: is IC50 under 2 µg/mL? Then Condition met. Not under? Then Condition not met.

Prompt: Please determine if COc1cccc2c1C(=O)c1c(O)c3c(c(O)c1C2=O)C[C@@](O)(C(=O)CO)C[C@@H]3O[C@H]1C[C@H](N)[C@@H](O)[C@H](C)O1 [Epirubicin] is below 2 µg/mL in terms of IC50.
Completion: Condition not met

Prompt: Please determine if CCc1c2c(nc3ccc(O)cc13)-c1cc3c(c(=O)n1C2)COC(=O)[C@]3(O)CC [7-ethyl-10-hydroxycamptothecine] is below 2 µg/mL in terms of IC50.
Completion: Condition met

Prompt: Please determine if O=C1c2c(O)ccc(O)c2C(=O)c2c(NCCNCCO)ccc(NCCNCCO)c21 is below 2 µg/mL in terms of IC50.
Completion: Condition not met

Prompt: Please determine if N.N.[Cl][Pt][Cl] [Cis-platinum] is below 2 µg/mL in terms of IC50.
Completion: Condition met

Prompt: Please determine if CC[C@]1(O)C[C@H]2CN(CCc3c([nH]c4ccccc34)[C@@](C(=O)OC)(c3cc4c(cc3OC)N(C=O)[C@H]3[C@@](O)(C(=O)OC)[C@H](OC(C)=O)[C@]5(CC)C=CCN6CC[C@]43[C@@H]65)C2)C1 is below 2 µg/mL in terms of IC50.
Completion: Condition not met

Prompt: Please determine if CCc1c2c(nc3ccc(OC(=O)N4CCC(N5CCCCC5)CC4)cc13)-c1cc3c(c(=O)n1C2)COC(=O)[C@]3(O)CC is below 2 µg/mL in terms of IC50.
Completion: Condition not met

Prompt: Please determine if N.N.O=C([O-])C1(C(=O)[O-])CCC1.[Pt+2] is below 2 µg/mL in terms of IC50.
Completion: Condition met

Prompt: Please determine if CC(C)=CCC[C@]1(C)C=Cc2c(O)c3c(c(CC=C(C)C)c2O1)O[C@]12C(=C[C@@H]4C[C@H]1C(C)(C)O[C@@]2(C/C=C(/C)C(=O)O)C4=O)C3=O is below 2 µg/mL in terms of IC50.
Completion: Condition not met
